system tested: T1, biotinylated native human ApoC3 (human, UniProt P02656 21-99, biotinylated (site not stated))
T1 construct: also called biotinylated human ApoC3
T1 sequence (P02656 21-99): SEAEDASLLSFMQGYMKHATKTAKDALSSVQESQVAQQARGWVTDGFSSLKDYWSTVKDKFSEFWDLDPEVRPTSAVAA
assay explanation: SPR, IgG1 over biotinylated ApoC3 on SA chip
Description: Biotinylated native human ApoC3 was captured on a streptavidin coated SPR chip (GE Healthcare, cat. nr. BR100032) at pH 7.4, in accordance with the method provided by Biacore, by injection of 20 μl 10 μg/ml biotinylated native human ApoC3 reaching the surface density of approximately 500 RU. […] The resulting sensorgrams were analyzed using the BIAevaluation 4.1 software using Langmuir 1:1 binding model to derive binding kinetics. […]
Some binders, each annotated with its measured KD pH5.5/KD pH7.4.
Number, no unit, nothing else.

mAb17 (antibody, IgG1, V domains shown, Produced as full length IgG1 (kappa) in ExpiCHO-S cells; also called humanized anti-ApoC3 antibody mAb17) VH: QLVESGGGLVQPGGSLRLSCAASGFTFSTYSMRWVRQAPGKGLEWVSSIHTEAGGTAYRDSVKGRFTISRDNAKNTLYLQMNNLRAEDTAVYYCVIAGYSDWGQGTLVTVSS VL: DIVMTQSPLSLPVTPGEPASISCKTSQGLVHSGGKTYFYWFLQKPGQSPQQLIYQVSNRASGVPDRFTGSGSGTDFTLKISRVEAEDAGVYYCAQGTYYPHTFGQGTRLEIK; 7.37
mAb3 (antibody, IgG1, V domains shown, Produced as full length IgG1 (kappa) in ExpiCHO-S cells; also called humanized anti-ApoC3 antibody mAb3) VH: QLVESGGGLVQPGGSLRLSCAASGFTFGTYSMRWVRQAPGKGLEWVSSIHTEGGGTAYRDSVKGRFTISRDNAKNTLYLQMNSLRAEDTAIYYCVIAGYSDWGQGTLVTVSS VL: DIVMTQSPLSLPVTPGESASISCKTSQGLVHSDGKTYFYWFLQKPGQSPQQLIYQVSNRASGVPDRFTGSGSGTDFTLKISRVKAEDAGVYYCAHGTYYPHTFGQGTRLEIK; 3.19
mAb14 (antibody, IgG1, V domains shown, Produced as full length IgG1 (kappa) in ExpiCHO-S cells; CDR graft into the closest human germline frameworks; also called humanized anti-ApoC3 antibody mAb14; variant 14) VH: QLLESGGGLVQPGGSLRLSCAASGFTFGTYSMRWVRQVPGKGLEWVSSIHTEGGGTAYRDSVKGRFTISRDNSKNTLYLQMNSLRAEDTAVYYCVIAGYSDWGQGTLVTVSS VL: DIVMTQSPLSLPVTPGEPASISCKTSQGLVHSDGKTYFYWYLQKPGQSPQLLIYQVSNRASGVPDRFSGSGSGTDFTLKISRVEAEDVGVYYCAHGTYYPHTFGQGTRLEIK; 7.2
mAb13 (antibody, IgG1, V domains shown, Produced as full length IgG1 (kappa) in ExpiCHO-S cells; CDR graft into the closest human germline frameworks; also called humanized anti-ApoC3 antibody mAb13; variant 13) VH: QLLESGGGLVQPGGSLRLSCAASGFTFSTYSMRWVRQVPGKGLEWVSSIHTEGGGTAYRDSVKGRFTISRDNSKNTLYLQMNSLRAEDTAVYYCVIAGYSDWGQGTLVTVSS VL: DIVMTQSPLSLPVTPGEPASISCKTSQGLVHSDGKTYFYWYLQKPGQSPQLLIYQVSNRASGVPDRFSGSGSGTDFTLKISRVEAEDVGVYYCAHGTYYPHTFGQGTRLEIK; 1.33

Next binder, KD pH5.5/KD pH7.4 to be filled in.
5E5VH5_VL8 human IgG1 (antibody, V domains shown, Tested as human IgG1; the tested lot is not tied to them in words) VH: QLQLVESGGGLVQPGGSLRLSCAASGFTFGTYSMRWVRQVPRKALEWVSSIHTDGGGTAYRDSVKGRFTISRDNAKNTLYLQMNNLKPEDTAIYYCVIAGYSDWGQGTQVTVSS VL: ATMLTQSPGSLSVVPGESASISCKTSQGLVHSDGKTYFYWFLQKPGQSPQQLIYQVSNRASGVPDRFTGSGSGTDFTLKISGVKAEDAGVYYCAHGTYYPHTFGSGTRLEIK yielded KD pH5.5/KD pH7.4 of 11.7
